B1: TRIM63 (parent)
chain: ANPYWTSRGSSVSMSGGRFRCPTC

Variants of: B1
Experiment Summary: protein stability index of a GFP-peptide fusion (GPS, HEK-293T) (PSI 1-6); higher = more stable;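 further: lentivirally expressed fusions sorted by FACS into six bins by GFP to DsRed ratio, PSI derived from sequencing read proportions per bin multiplied by bin number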
Particulars: c terminus: a fixed tail appended
In this section we review reported protein stability index values for a set of variants.
Number only, please.

INSERT INTO measurements (mutation_list, measured_result) VALUES
  ('V12T', 2.9);

Return reported protein stability index; argument: `M14F`
2.04

Recorded protein stability index of `S13T` , please.
1.83

May I ask what protein stability index has been recorded for `C21T` ?
2.23

Entry `S7Y` : reported protein stability index = ?
1.54

Form field: reported protein stability index of `S7D`
2.38

Recorded protein stability index of `V12W` , please.
2.87

Quick one: protein stability index of `G17A` ?
1.84

Can you look up the measured protein stability index of `G9P` for me?
1.76

So what does the record say about protein stability index for `G16M` ?
1.83

I'd like to know its protein stability index. The variant in question is `G17W`
1.49

I would be grateful if you could share the reported protein stability index for `W5D` .
2.19

Which measured protein stability index value corresponds to `R20W` ?
2.43

Any idea what its protein stability index is? The variant is `Y4Q`
1.69

Any idea what its protein stability index is? The variant is `S10A`
1.68

Returns the measured protein stability index for the input variant. Input: `P3F`
2.13

# input variant: `T23H` ; wanted: its protein stability index
2.28

I have this variant here, `F19N` , and I need its recorded protein stability index.
2.24

Quick check: protein stability index of `T6M` ?
2.24

Requested read-out: protein stability index. Entry: `R18V`
1.08

I would be grateful if you could share the reported protein stability index for `S13N` .
2.18

What value of protein stability index has been recorded for this entry: `P22I`
2.75
